Where a name gives a salt, the structure may show the parent alone.
Field: melting point. Provide a value for each of the compounds that follow.

{"COMPOUND": "Cc1ccc(C(=O)C(CC(C)C)N2CCCC2)cc1 (stereo not drawn) (as salt: salt)", "melting point": "218 °C (dec.)"}
{"COMPOUND": "CCCC(C(=O)c1ccc(F)cc1)N1CCCC1 (stereo not drawn) (as salt: salt)", "melting point": "218 °C (dec.)"}
{"COMPOUND": "CCCC(C(=O)c1ccc(OC)c(OC)c1)N1CCCC1 (stereo not drawn) (as salt: salt)", "melting point": "177 °C (dec.)"}
{"COMPOUND": "CCCC(C(=O)c1ccc([N+](=O)[O-])cc1)N1CCCC1 (stereo not drawn) (as salt: salt)", "melting point": "189 °C (dec.)"}
{"COMPOUND": "CCC(C(=O)c1ccc(Cl)c(Cl)c1)N1CCCC1 (stereo not drawn) (as salt: salt)", "melting point": "211 °C (dec.)"}

I have 4 compounds here; please give me melting point for each one.
1. CCCC(C(=O)c1ccc(C(F)(F)F)cc1)N1CCCC1 (stereo not drawn) (as salt: salt)
2. CCCC(C(=O)c1ccc(C)cc1)N1CCCC1 (racemic) (as salt: salt)
3. CCCC(N1CCCC1)C(O)(Cc1ccccc1)c1ccc(C)cc1 (stereo not drawn) (as salt: salt)
4. CC#Cc1ccc(C(=O)C(CCC)N2CCCC2)cc1 (stereo not drawn) (as salt: salt)

228 °C (dec.)
180 °C (dec.)
211 °C (dec.)
231 °C (dec.)
